Tested on: wheat germ agglutinin (Triticum aestivum), Alexa647-labelled
Experiment: Alexa647-WGA lectin binding to printed small molecules – biochemical, small-molecule microarray, 635/667 nm fluorescence, artefact control for SMM control-protein annotation, profiling panel (AID 1140);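 further: score merges 667 nm feature emission with signal to noise over triplicate slides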
Conditions: WGA-A647 binding, 635 nm fluorescence, higher = more signal
Readout Label: composite z-score
One number for each entry.

Previously resolved entries follow.
Summary for this compound, "Cc1ccc(S[C@]2(C(=O)NCC(C)C)CC(=O)N(Cc3cc(C(F)(F)F)cc(C(F)(F)F)c3)[C@@H]2c2ccc(CO)cc2)cc1" : composite z-score is -0.262

Summary for this compound, "C=C(CCCC)/C(=C/C[C@H](OC(C)=O)c1ccc(OCCO)cc1)c1cnc2ccccc2c1" : composite z-score is 0.869

Summary for this compound, "Cc1ccc(S(=O)(=O)N2C[C@@H](C(=O)O)[C@H](Sc3ccccc3)C[C@H]2c2ccccc2)cc1" : composite z-score is 1.03

Then this compound:
Summary for this compound, CN1C(=O)C2C=CC(C(O)c3ccccc3)N(N3CCCCC3)C2C1=O (centres undefined) : composite z-score is 0.573

====

Molecular target: Torsin-1A-interacting protein 1 (Homo sapiens) (UniProt Q5JTV8)
Sequence (Q5JTV8 whole entry, looked up): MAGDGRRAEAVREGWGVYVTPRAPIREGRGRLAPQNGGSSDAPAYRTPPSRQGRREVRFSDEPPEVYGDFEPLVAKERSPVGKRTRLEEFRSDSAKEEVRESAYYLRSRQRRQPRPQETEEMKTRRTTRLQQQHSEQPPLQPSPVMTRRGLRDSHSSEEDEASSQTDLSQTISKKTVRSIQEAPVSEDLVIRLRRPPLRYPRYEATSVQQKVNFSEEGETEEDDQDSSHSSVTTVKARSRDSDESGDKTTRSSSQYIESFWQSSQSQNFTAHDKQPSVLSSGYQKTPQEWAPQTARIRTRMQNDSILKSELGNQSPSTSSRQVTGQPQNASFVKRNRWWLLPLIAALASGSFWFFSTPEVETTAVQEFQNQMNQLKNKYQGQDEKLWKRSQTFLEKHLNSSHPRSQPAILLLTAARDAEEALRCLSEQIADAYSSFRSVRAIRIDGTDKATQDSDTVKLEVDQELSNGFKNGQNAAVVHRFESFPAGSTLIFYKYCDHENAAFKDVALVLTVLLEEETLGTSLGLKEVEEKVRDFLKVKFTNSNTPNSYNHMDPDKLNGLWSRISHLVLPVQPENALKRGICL
Assay: compound microarray binding of lysate hLAP1 – cell lysate, small-molecule microarray, COS7 lysate, 635/667 nm fluorescence, primary screen (AID 1116)
Settings: 635 nm fluorescence, higher = more signal
Readout Label: composite z-score

Summary for this compound, "CN(C)CCCCCCNC(=O)[C@@H]1C[C@@H]2C(=O)N[C@@H](CCCC[N+](C)(C)C)C(=O)N2[C@@H]1c1ccc(O)cc1" : composite z-score is 0.964

Summary for this compound, "COc1cc2c(cc1OC)CN(C(=O)[C@H]1[C@@H]3C(=O)O[C@@H](c4ccccc4)[C@@H](c4ccccc4)N3[C@@H](c3ccccc3OCCO)[C@]13C(=O)Nc1ccc(C#CCCO)cc13)CC2" : composite z-score is 0.532

Summary for this compound, "CC(C)(C)OC(=O)CC[C@@]1(C(=O)N2CCCCC2)N=C(c2ccc(OCCCO)cc2)O[C@@H]1c1ccccc1" : composite z-score is 0.774

Summary for this compound, "CC#CC(=O)Oc1ccc(Br)cc1C=CC(=O)OCC" : composite z-score is 0.286

Summary for this compound, "C[N+](C)(C)CCCC[C@@H]1NC(=O)[C@@H]2C[C@H](C(=O)NCCCCCCNC(=O)CS)[C@H](c3ccc(O)cc3)N2C1=O" : composite z-score is 0.958

// each listed compound needs a value for composite z-score
1. CC(=O)NCCCC[C@@H]1NC(=O)[C@H]2C[C@@H](C(=O)NCCCCCNC(=O)CS)[C@@H](c3ccc(O)cc3)N2C1=O
2. COc1ccc(CCNC(=O)[C@@]2(C)c3ccccc3C(=O)N(c3ccc(C)cn3)[C@H]2c2ccc(CO)cc2)cc1

-- reply
1: 0.177; 2: 0.56

====

Consider the following molecules; for each one, report its z-score.
Assay: JC-1 mitochondrial signal, unstimulated adipocytes – cell-based, JC-1 fluorescence, 3T3-L1 adipocytes, 24 h, 100 nL compound, profiling panel (AID 1168); further: test concentration not given here
Settings: JC-1 mitochondrial fluorescence, higher = more signal, called active from +8 up or from −8 down
Calls of active or inactive are those of the source.

Previously resolved entries follow.
Summary for this molecule, "Cc1ccc(S[C@]2(C(=O)NCC(C)C)CC(=O)N(Cc3cc(C(F)(F)F)cc(C(F)(F)F)c3)[C@@H]2c2ccc(CO)cc2)cc1" : z-score is -0.612 (inactive)

Summary for this molecule, "NC(=O)NCC#Cc1ccc2c(c1)[C@]1(C(=O)N2)[C@H](C(=O)O)[C@H]2C(=O)O[C@H](c3ccccc3)[C@H](c3ccccc3)N2[C@@H]1c1ccc(O)cc1" : z-score is -1.56 (inactive)

Summary for this molecule, COc1ccc(C(O)C2C=CC3C(=O)N(C)C(=O)C3N2NC(=O)OC(C)(C)C)c2ccccc12 (stereo not given) : z-score is 0.549 (inactive)

Summary for this molecule, O=C1OCCC=C[C@H]2OC34C=CCN(c5ccc(Cl)cc5)C(=O)[C@H]3N(CCCO)C(=O)[C@@H]4C12 (stereo not given in full) : z-score is 0.272 (inactive)

Summary for this molecule, "COc1cc2c(cc1O)C=[N+](Cc1cc3c(cc1Br)OCO3)CC2" : z-score is -0.935 (inactive)

Summary for this molecule, "COc1ccc([C@H]2C[C@H]3C(Br)=C[C@@]2(CO)C(=O)[C@]32CO2)cc1" : z-score is 0.134 (inactive)

// each listed molecule needs a value for z-score
1. [N-]=[N+]=Nc1ccccc1C[C@@]1(C(=O)N2CCCCC2)N=C(c2ccc(OCCCO)cc2)O[C@@H]1c1ccccc1
2. C=C[C@H](C)[C@@H](OC(=O)Nc1ccc(SC)cc1)c1ccc(O)c2ccccc12
3. CO[C@H]1O[C@H](CO)[C@@H](OC(=O)Nc2ccccc2-c2ccccc2)[C@H](OC(=O)Nc2ccccc2-c2ccccc2)[C@@H]1OC(=O)Nc1ccccc1-c1ccccc1
4. COCCCNC(=O)[C@@]1(Cc2ccccc2CN=[N+]=[N-])N=C(c2ccc(OCCCO)cc2)O[C@H]1c1ccccc1CN=[N+]=[N-]
5. COc1ccc(C(O)C2C=CC3C(=O)N(C)C(=O)C3N2N(c2ccccc2)c2ccccc2)c2ccccc12 (stereo not given)
6. NC(=O)[C@@H]1[C@H]2C(=O)O[C@H](c3ccccc3)[C@H](c3ccccc3)N2[C@H](c2ccc(OCCO)cc2)[C@@]12C(=O)Nc1ccc(C#CC3=CCCCC3)cc12

-- reply
["0.883 (inactive)", "-0.475 (inactive)", "1.6 (inactive)", "2.31 (inactive)", "-0.14 (inactive)", "0.396 (inactive)"]
